# experiment-summary: Solubility in organic solvents
# Format: physicochemical
# measurement-setup: organic solvent or mixture, thermodynamic from solid; Dimethylformamide, room temperature; read-out: Solubility
# Protocol: The concentration of CCG-211790 in organic solvents was carried out on a LabTech BlueStar plus UV-Vis spectrophotometer (Hopkinton, MA, USA) using dimethylformamide (DMF) as a reference solvent. UV-Vis absorption spectra were recorded in a wavelength range from 200–500 nm with samples placed in a quartz cuvette. CCG-211790 concentrations in organic solvents were determined based on the absorption of CCG-211790 at characteristic wavelength of 314 nm. […]
property-label: solubility at 24 h (mg/mL)
Answer in mg/mL, number only, no unit symbol.

# solubility at 24 h lookup, item `COc1ccc2c(c1)-c1nc(SCC(F)(F)F)n(C)c(=O)c1C(C)(C)C2`
215

* * *

# experiment-summary: Solubility in water
# Type: physicochemical
# measurement-setup: thermodynamic from solid, room temperature, 20 h, HPLC
property-label: solubility at 20 h (µg/mL)
Answer in µg/mL, number only, no unit symbol.

# solubility at 20 h lookup, item COc1ccc2c(c1)-c1nc(SCC(F)(F)F)n(C)c(=O)c1C(C)(C)C2 [CCG-211790]
0.038

* * *

# experiment-summary: Solubility in organic solvents
# Type: physicochemical
# measurement-setup: organic solvent or mixture, thermodynamic from solid; Isopropyl alcohol, room temperature; read-out: Solubility
property-label: solubility at 24 h
The answer should read as a number with its unit following.

# solubility at 24 h lookup, item `COc1ccc2c(c1)-c1nc(SCC(F)(F)F)n(C)c(=O)c1C(C)(C)C2`
15.4 mg/mL

* * *

# experiment-summary: Solubility in organic solvents
# Assay type: physicochemical
# measurement-setup: organic solvent or mixture, thermodynamic from solid; Dimethylacetamide, room temperature; read-out: Solubility
property-label: solubility at 24 h
The answer should read as a number with its unit following.

# solubility at 24 h lookup, item `COc1ccc2c(c1)-c1nc(SCC(F)(F)F)n(C)c(=O)c1C(C)(C)C2`
278 mg/mL

* * *

# experiment-summary: Solubility in organic solvents
# Type: physicochemical
# measurement-setup: oil or lipid, thermodynamic from solid; Safflower oil, room temperature; read-out: Solubility
property-label: solubility at 24 h (mg/mL)
Answer in mg/mL, number only, no unit symbol.

# solubility at 24 h lookup, item `COc1ccc2c(c1)-c1nc(SCC(F)(F)F)n(C)c(=O)c1C(C)(C)C2`
22.7

* * *

# experiment-summary: Solubility in organic solvents
# Format: physicochemical
# measurement-setup: oil or lipid, thermodynamic from solid; Sesame oil, room temperature; read-out: Solubility
property-label: solubility at 24 h (mg/mL)
Answer in mg/mL, number only, no unit symbol.

# solubility at 24 h lookup, item `COc1ccc2c(c1)-c1nc(SCC(F)(F)F)n(C)c(=O)c1C(C)(C)C2`
22.7

* * *

# experiment-summary: Solubility in water containing sodium dodecyl sulfate (SDS)
# Assay type: physicochemical
# measurement-setup: 1.0% (w/v) SDS solution, aqueous with cosolvent or surfactant or cyclodextrin, thermodynamic from solid; 1.0% (w/v) SDS, mean of 24 and 48 h, 37°C
property-label: solubility (µg/mL)
Answer in µg/mL, number only, no unit symbol.

# solubility lookup, item COc1ccc2c(c1)-c1nc(SCC(F)(F)F)n(C)c(=O)c1C(C)(C)C2 [CCG-211790]
66.1
